Molecular target: CCR2 receptor (Homo sapiens, UniProt P41597)
Construct: expressed in transfected cells
Sequence (P41597 whole entry): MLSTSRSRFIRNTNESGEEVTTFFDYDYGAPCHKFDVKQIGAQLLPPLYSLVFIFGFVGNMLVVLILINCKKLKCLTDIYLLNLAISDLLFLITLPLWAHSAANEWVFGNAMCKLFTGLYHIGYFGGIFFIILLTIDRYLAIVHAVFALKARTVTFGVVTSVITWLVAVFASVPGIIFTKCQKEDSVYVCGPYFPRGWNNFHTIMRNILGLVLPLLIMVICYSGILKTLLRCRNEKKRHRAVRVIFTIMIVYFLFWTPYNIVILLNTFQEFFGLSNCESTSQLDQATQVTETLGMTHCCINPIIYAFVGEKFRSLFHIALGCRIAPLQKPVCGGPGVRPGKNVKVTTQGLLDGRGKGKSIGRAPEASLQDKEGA
Test: Calcium activity assay on FLIPR Tetra in HEK-Gqi5 cells stably expressing CCR2
Assay type: cell-based
testReadout: CCR2 % ANTAGONISM (%)

[
  {
    "compound": "CC(=O)Nc1cccc(C[S+]([O-])c2ccc(Cl)cc2NS(=O)(=O)c2cc3ccccc3o2)c1 (stereo not drawn)",
    "measurementUnit": "%",
    "observedValue": 95
  },
  {
    "compound": "O=C(O)CCSc1ccc(Cl)cc1NS(=O)(=O)c1ccc(Cl)cc1F",
    "measurementUnit": "%",
    "observedValue": 102
  },
  {
    "compound": "CCN(C)C(=O)CC[S+]([O-])c1ccc(Cl)cc1NS(=O)(=O)c1ccc(Cl)cc1F (stereo not drawn)",
    "measurementUnit": "%",
    "observedValue": 89
  },
  {
    "compound": "O=C(O)c1ccccc1CS(=O)(=O)c1ccc(Cl)cc1NS(=O)(=O)c1cc2ccccc2o1",
    "measurementUnit": "%",
    "observedValue": 96
  },
  {
    "compound": "O=C(O)c1ccccc1C[S+]([O-])c1ccc(Cl)cc1NS(=O)(=O)c1ccc(Cl)c(C(F)(F)F)c1 (stereo not drawn)",
    "measurementUnit": "%",
    "observedValue": 99
  },
  {
    "compound": "N#Cc1ccc(NS(=O)(=O)c2cc3ccccc3o2)c([S+]([O-])Cc2ccccc2)c1 (stereo not drawn)",
    "measurementUnit": "%",
    "observedValue": 94
  },
  {
    "compound": "COC(=O)CCSc1ccc(Cl)cc1NS(=O)(=O)c1cc2ccccc2o1",
    "measurementUnit": "%",
    "observedValue": 91
  },
  {
    "compound": "COC(=O)CC[S+]([O-])c1ccc(Cl)cc1NS(=O)(=O)c1ccc(Cl)cc1F (stereo not drawn)",
    "measurementUnit": "%",
    "observedValue": 93
  },
  {
    "compound": "NC(=O)c1ccccc1CSc1ccc(Cl)cc1NS(=O)(=O)c1ccc(Cl)c(C(F)(F)F)c1",
    "measurementUnit": "%",
    "observedValue": 88
  },
  {
    "compound": "CS(=O)(=O)Nc1cccc(CS(=O)(=O)c2ccc(Cl)cc2NS(=O)(=O)c2cc3ccccc3o2)c1",
    "measurementUnit": "%",
    "observedValue": 91
  },
  {
    "compound": "N#Cc1ccc(NS(=O)(=O)c2cc3ccccc3o2)c(SCc2ccccc2)c1",
    "measurementUnit": "%",
    "observedValue": 79
  },
  {
    "compound": "CC(C)(C)OC(=O)CNC(=O)c1ccc(CS(=O)(=O)c2ccc(Cl)cc2NS(=O)(=O)c2ccc(Cl)c(C(F)(F)F)c2)cc1",
    "measurementUnit": "%",
    "observedValue": 77
  },
  {
    "compound": "COC(=O)CCS(=O)(=O)c1ccc(Cl)cc1NS(=O)(=O)c1ccc(Cl)cc1F",
    "measurementUnit": "%",
    "observedValue": 82
  },
  {
    "compound": "N#Cc1ccc(NS(=O)(=O)c2cc3ccccc3o2)c(S(=O)(=O)Cc2ccccc2)c1",
    "measurementUnit": "%",
    "observedValue": 96
  },
  {
    "compound": "O=C(NCCN1CCCC1)c1cccc(CSc2ccc(Cl)cc2NS(=O)(=O)c2ccc(Cl)c(C(F)(F)F)c2)c1",
    "measurementUnit": "%",
    "observedValue": 97
  },
  {
    "compound": "CC(=O)Nc1cccc(CSc2ccc(Cl)cc2N(C(C)=O)S(=O)(=O)c2cc3ccccc3o2)c1",
    "measurementUnit": "%",
    "observedValue": 73
  },
  {
    "compound": "CC(=O)Nc1cccc(CSc2ccc(Cl)cc2NS(=O)(=O)c2cc3ccccc3o2)c1",
    "measurementUnit": "%",
    "observedValue": 96
  },
  {
    "compound": "COC(=O)c1ccccc1CS(=O)(=O)c1ccc(F)cc1NS(=O)(=O)c1cc2ccccc2o1",
    "measurementUnit": "%",
    "observedValue": 90
  },
  {
    "compound": "CC(=O)Nc1cccc(CS(=O)(=O)c2ccc(Cl)cc2NS(=O)(=O)c2cc3ccccc3o2)c1",
    "measurementUnit": "%",
    "observedValue": 100
  },
  {
    "compound": "CCNC(=O)c1ccccc1CSc1ccc(Cl)cc1NS(=O)(=O)c1ccc(Cl)c(C(F)(F)F)c1",
    "measurementUnit": "%",
    "observedValue": 92
  },
  {
    "compound": "COC(=O)c1cccc(CSc2ccc(Cl)cc2NS(=O)(=O)c2ccc(Cl)c(C(F)(F)F)c2)c1",
    "measurementUnit": "%",
    "observedValue": 57
  },
  {
    "compound": "CCN(CC)C(=O)CC[S+]([O-])c1ccc(Cl)cc1NS(=O)(=O)c1ccc(Cl)c(C(F)(F)F)c1 (stereo not drawn)",
    "measurementUnit": "%",
    "observedValue": 56
  },
  {
    "compound": "COC(=O)CCS(=O)(=O)c1ccc(Cl)cc1NS(=O)(=O)c1cc2ccccc2o1",
    "measurementUnit": "%",
    "observedValue": 96
  },
  {
    "compound": "O=C(CC[S+]([O-])c1ccc(Cl)cc1NS(=O)(=O)c1ccc(Cl)c(C(F)(F)F)c1)N1CCCC1 (stereo not drawn)",
    "measurementUnit": "%",
    "observedValue": 72
  },
  {
    "compound": "O=C(NCCN1CCCC1)c1ccc(C[S+]([O-])c2ccc(Cl)cc2NS(=O)(=O)c2ccc(Cl)c(C(F)(F)F)c2)cc1 (stereo not drawn)",
    "measurementUnit": "%",
    "observedValue": 85
  },
  {
    "compound": "COC(=O)CCSc1ccc(Cl)cc1NS(=O)(=O)c1ccc(Cl)cc1F",
    "measurementUnit": "%",
    "observedValue": 79
  },
  {
    "compound": "O=C(CCS(=O)(=O)c1ccc(Cl)cc1NS(=O)(=O)c1ccc(Cl)c(C(F)(F)F)c1)N1CCCC1",
    "measurementUnit": "%",
    "observedValue": 58
  },
  {
    "compound": "O=C(O)c1cccc(C[S+]([O-])c2ccc(Cl)cc2NS(=O)(=O)c2ccc(Cl)c(C(F)(F)F)c2)c1 (stereo not drawn)",
    "measurementUnit": "%",
    "observedValue": 89
  },
  {
    "compound": "O=C1CCc2cc(NS(=O)(=O)c3cc4ccccc4o3)c([S+]([O-])Cc3ccccc3)cc21 (stereo not drawn)",
    "measurementUnit": "%",
    "observedValue": 73
  },
  {
    "compound": "O=C(O)c1ccc(C[S+]([O-])c2ccc(Cl)cc2NS(=O)(=O)c2ccc(Cl)c(C(F)(F)F)c2)cc1 (stereo not drawn)",
    "measurementUnit": "%",
    "observedValue": 23
  },
  {
    "compound": "COC(=O)c1ccccc1CSc1ccc(F)cc1NS(=O)(=O)c1cc2ccccc2o1",
    "measurementUnit": "%",
    "observedValue": 93
  },
  {
    "compound": "O=C(O)CCS(=O)(=O)c1ccc(Cl)cc1NS(=O)(=O)c1ccc(Cl)cc1F",
    "measurementUnit": "%",
    "observedValue": 90
  },
  {
    "compound": "O=S(=O)(Cc1ccccc1)c1ccc(Cl)cc1NS(=O)(=O)c1ccc(Cl)c(C(F)(F)F)c1",
    "measurementUnit": "%",
    "observedValue": 71
  },
  {
    "compound": "CS(=O)(=O)Nc1cccc(CSc2ccc(Cl)cc2NS(=O)(=O)c2cc3ccccc3o2)c1",
    "measurementUnit": "%",
    "observedValue": 90
  },
  {
    "compound": "O=C(O)c1ccccc1CSc1ccc(Cl)cc1NS(=O)(=O)c1cc2ccccc2o1",
    "measurementUnit": "%",
    "observedValue": 101
  },
  {
    "compound": "COC(=O)c1ccccc1CSc1ccc(Cl)cc1NS(=O)(=O)c1ccc(Cl)c(C(F)(F)F)c1",
    "measurementUnit": "%",
    "observedValue": 88
  }
]
